These entries and their values trace back to PubChem BioAssay (NCI).

Exercise: for every item that follows, state its recorded growth.
System: MDA-MB-468 breast
Assay Info: NCI-60 one-dose screen, 48 h (100 = growth as untreated, 0 = no growth, -100 = all killed)
Experimental Setup: 10 µM unless noted
Compounds without any hit were thinned out: in the full panel of roughly 83,000, 20% have a hit. Calls of active or inactive are those of the source. The calls were made as follows: active = growth percent below 10; inactive = the rest.

Study these solved cases before continuing.
[
  {
    "Compound": "NC(=O)OCC(CO)(c1ccccc1)c1ccccc1",
    "Tested On": "MDA-MB-468 breast",
    "Experimental Value": "93.8% (inactive)"
  },
  {
    "Compound": "CC[C@@H](C)/C=C(C)/C=C/C(=O)c1c(O)c(-c2ccc(O)cc2)cn(O)c1=O",
    "Tested On": "MDA-MB-468 breast",
    "Experimental Value": "-25% (active)"
  },
  {
    "Compound": "Fc1ccc2c(c1)c(-c1nc(-c3c[nH]c4ncccc34)cs1)cn2CCCCN1CCCCC1",
    "Tested On": "MDA-MB-468 breast",
    "Experimental Value": "-56.6% (active)"
  },
  {
    "Compound": "COC(=O)[C@H](C[C@H](Cc1ccccc1)NC(=O)c1csc([C@@H](C[C@H](C(C)C)N(C)C(=O)[C@@H](NC(=O)[C@H]2CCCCN2C)C(C)C)OC(C)=O)n1)NC(=O)OCc1ccccc1",
    "Tested On": "MDA-MB-468 breast",
    "Experimental Value": "0.51% [8.5 µM] (active)"
  }
]

For each of the compounds below, note its growth.
1. Oc1cc[c]([Hg][Cl])cc1
2. NC(=S)c1cn(C2OC(CO)C(O)C2O)c2ncnc(N)c12 (stereo not drawn)
3. CCC1(C(C)C)C(=O)NC(=S)NC1=O
4. CCOC(=O)N1CC1

Result:
1. 93.6% (inactive)
2. -43.2% (active)
3. 89.9% (inactive)
4. 92.5% (inactive)
